# measured.target: T1, PDZD2_2, O15018
# T1 sequence (O15018 329-429, limits assumed, looked up): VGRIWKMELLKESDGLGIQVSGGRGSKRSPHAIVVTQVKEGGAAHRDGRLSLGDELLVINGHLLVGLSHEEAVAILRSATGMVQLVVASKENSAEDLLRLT
# assay.name: holdup assay
# Parameters: key: below the threshold = too weak to quantify, mostly under pKd 3.1 to 4
# run.parameters: plain residues with an end cap or a label only (N-terminal biotin on a linker: ado-ado)
measurement.label: pKd
Lab note: jot the number down without any unit.

(Q) Please list pKd recorded for the binder PRISRSQSEL [CCDC134, Q9H6E4]
(A) 3.66

(Q) Please list pKd recorded for the binder NLSIEKETKL [ASNSD1, Q9NWL6]
(A) 3.83

(Q) Please list pKd recorded for the binder ETQVTAETVI [TMEM225B, P0DP42]
(A) 3.92

(Q) Please list pKd recorded for the binder PPYRHRNTVV [ERBB4, Q15303]
(A) 4.25

(Q) Please list pKd recorded for the binder FNSYSLTGYV [CLDN2, P57739]
(A) 4.65

Further cases:
(Q) Please list pKd recorded for the binder QGPVETESVV [SLC45A4, Q5BKX6]
(A) 5.27

(Q) Please list pKd recorded for the binder LRSPRTPSEV [OR10G3, Q8NGC4]
(A) 3.95

(Q) Please list pKd recorded for the binder SARSRLSSNL [HCN2, Q9UL51]
(A) 3.74

(Q) Please list pKd recorded for the binder DDENIRTSDV [PLEKHA2, Q9HB19]
(A) 5.74

(Q) Please list pKd recorded for the binder SAKVRTVTSV [RASL11B, Q9BPW5]
(A) 4.25

(Q) Please list pKd recorded for the binder RHGSCVETSL [TMEM151B, Q8IW70]
(A) 3.56

(Q) Please list pKd recorded for the binder TPPAAKKSRI [BAZ1A, Q9NRL2]
(A) 3.97
